System: Proteus vulgaris KY4277 ATCC6897
experimental.details: MIC, agar dilution method, pH 8.0
Type: cell-based
run.conditions: ATCC6897; pH 8.0; Proteus vulgaris KY4277; read-out: Minimum inhibition concentration (MIC), PV
outcome.measure: MIC (µg/mL)
Entry rule: numbers only, all in µg/mL.

Answered cases to consult:
molecule	unit.tag	MIC
CO[C@H]1[C@@H](O)[C@H](N)[C@@H](O[C@H]2O[C@H]([C@H](C)N)CC[C@H]2N)[C@H](O)[C@@H]1N(C)C(=O)[C@@H](O)CCN	µg/mL	10
CO[C@H]1[C@@H](O)[C@H](N)[C@@H](O[C@H]2O[C@H]([C@H](C)N)CC[C@H]2N)[C@H](O)[C@@H]1N(C)CCCCN	µg/mL	2.5
CO[C@H]1[C@@H](O)[C@H](N)[C@@H](O[C@H]2O[C@H]([C@H](C)N)CC[C@H]2N)[C@H](O)[C@@H]1N(C)C[C@@H](O)CN	µg/mL	1.25

Request - read-out MIC | tested on Proteus vulgaris KY4277 ATCC6897 | molecule CO[C@H]1[C@@H](O)[C@H](N)[C@@H](O[C@H]2O[C@H]([C@H](C)N)CC[C@H]2N)[C@H](O)[C@@H]1N(C)C(=O)CNC(N)=O [Compound 3, 4-N-hydantoylfortimicin B, reference compound]
0.63

====

System: Escherichia coli R18 KY8321 | Read-out: MIC
The answer is to be given in µg/mL; state only the numeric part.

Which MIC is reported with Escherichia coli R18 KY8321 for this entry: CO[C@H]1[C@@H](O)[C@H](N)[C@@H](O[C@H]2O[C@H]([C@H](C)N)CC[C@H]2N)[C@H](O)[C@@H]1N(C)C[C@@H](O)CCN ?
6.25

Lab note: need MIC for CO[C@H]1[C@@H](O)[C@H](N)[C@@H](O[C@H]2O[C@H]([C@H](C)N)CC[C@H]2N)[C@H](O)[C@@H]1N(C)C(=O)CNC(N)=O [Compound 3, 4-N-hydantoylfortimicin B, reference compound] on Escherichia coli R18 KY8321, anyone have it?
6.25

Request: MIC, test system Escherichia coli R18 KY8321, entry CNCC[C@H](O)CN(C)[C@H]1[C@@H](O)[C@H](O[C@H]2O[C@H]([C@H](C)N)CC[C@H]2N)[C@@H](N)[C@H](O)[C@@H]1OC
12.5

====

Listing of entries alongside the reported MIC.
System: Bacillus subtilis KY4273
experimental.details: MIC, agar dilution method, pH 8.0
Assay type: cell-based
run.conditions: Bacillus subtilis, KY4273, pH 8, read-out: Minimum inhibition concentration (MIC), BS
Expressed in µg/mL, but write only the number.

Some solved cases for reference:
compound	target	MIC [µg/mL]
CO[C@H]1[C@@H](O)[C@H](N)[C@@H](O[C@H]2O[C@H]([C@H](C)N)CC[C@H]2N)[C@H](O)[C@@H]1N(C)CCNCCN [Compound 25]	Bacillus subtilis KY4273	1.25
CCCC(=O)N(C)[C@H]1[C@@H](O)[C@H](O[C@H]2O[C@H]([C@H](C)N)CC[C@H]2N)[C@@H](N)[C@H](O)[C@@H]1OC [Compound 7, 4-N-(n-butyryl)fortimicin B]	Bacillus subtilis KY4273	12.5
CCCN(C)[C@H]1[C@@H](O)[C@H](O[C@H]2O[C@H]([C@H](C)N)CC[C@H]2N)[C@@H](N)[C@H](O)[C@@H]1OC [Compound 17, 4-N-(n-propyl)fortimicin B]	Bacillus subtilis KY4273	12.5

MIC lookup needed for CO[C@H]1[C@@H](O)[C@H](N)[C@@H](O[C@H]2O[C@H]([C@H](C)N)CC[C@H]2N)[C@H](O)[C@@H]1N(C)C[C@@H](O)CCCN [Compound 33] , thanks.
1.25

Looking for the measured MIC of CCN(C)[C@H]1[C@@H](O)[C@H](O[C@H]2O[C@H]([C@H](C)N)CC[C@H]2N)[C@@H](N)[C@H](O)[C@@H]1OC [Compound 16, 4-N-ethylfortimicin B] , can you help?
3.13

Given CN[C@H]1[C@@H](O)[C@H](O[C@H]2O[C@H]([C@H](C)N)CC[C@H]2N)[C@@H](N)[C@H](O)[C@@H]1OC [Compound 1, fortimicin B] , state its recorded MIC.
12.5
